Cited source for all entries: ChEMBL document CHEMBL3885861

Each entry below lists one item and its recorded MCHC value.
Species: Rattus norvegicus
TEST DETAILS: Open TG-GATES - Regimen: Single
Type: toxicity, organism-based, Sprague-Dawley
Design: regimen Single, gender Male, age 6 weeks
RECORDED CONDITIONS: in vivo, po, 0 mg/kg, 9 h, tissue Blood, route gavage, dose level Control
Give just the number in %; leave the unit off.

>>> print(df.to_string())
                                   compound  reading
0             CC(=O)Nc1ccc2c(c1)Cc1ccccc1-2     34.3
1  CC(C)Cc1ccc(C(C)C(=O)O)cc1 (configuration not stated)     33.8
2          O=C(O)COc1nn(Cc2ccccc2)c2ccccc12     33.5
3                                CCN(CC)N=O     34.5

Any idea what MCHC was measured for CC(=O)N1CCN(c2ccc(OCC3COC(Cn4ccnc4)(c4ccc(Cl)cc4Cl)O3)cc2)CC1 (configuration not stated) ?
33.3

Would you mind doing CC(CCc1ccccc1)NCC(O)c1ccc(O)c(C(N)=O)c1 (configuration not stated) as well?
33.9

Would you mind doing "CC[C@@H](CO)NCCN[C@@H](CC)CO" as well?
34

* * *

Species on record: Rattus norvegicus
TEST DETAILS: Open TG-GATES - Regimen: Single
Type: toxicity, organism-based, Sprague-Dawley
Design: regimen Single, gender Male, age 6 weeks
RECORDED CONDITIONS: in vivo, po, 0 mg/kg, 9 h, tissue Plasma, route gavage, dose level Control
PARAMETER: PL (mg/dL)
Give just the number in mg/dL; leave the unit off.

Before answering, review these 5 worked examples.
In [3]: df
Out[3]:
                                   molecule  parameter  reading
0                                CCN(CC)N=O         PL    141.6
1              CC[C@@H](CO)NCCN[C@@H](CC)CO         PL    118.2
2             CC(=O)Nc1ccc2c(c1)Cc1ccccc1-2         PL    134.8
3  CC(C)Cc1ccc(C(C)C(=O)O)cc1 (configuration not stated)         PL    130.4
4  CC(CCc1ccccc1)NCC(O)c1ccc(O)c(C(N)=O)c1 (configuration not stated)         PL      133

Any idea what PL was measured for CC(=O)N1CCN(c2ccc(OCC3COC(Cn4ccnc4)(c4ccc(Cl)cc4Cl)O3)cc2)CC1 (configuration not stated) ?
125.6

Would you mind doing "O=C(O)COc1nn(Cc2ccccc2)c2ccccc12" as well?
134.4

* * *

Species: Rattus norvegicus
TEST DETAILS: Open TG-GATES - Regimen: Single
Format: toxicity, organism-based, Sprague-Dawley
Design: regimen Single, gender Male, age 6 weeks
RECORDED CONDITIONS: in vivo, po, 0 mg/kg, 6 h, tissue Blood, route gavage, dose level Control
Each entry below lists one item and its recorded MCH value.

                                   compound  reading
0  CC(CCc1ccccc1)NCC(O)c1ccc(O)c(C(N)=O)c1 (configuration not stated) [LABETALOL]  21.8 pg
1  CC[C@@H](CO)NCCN[C@@H](CC)CO [ETHAMBUTOL]  21.7 pg
2  CC(=O)Nc1ccc2c(c1)Cc1ccccc1-2 [2-ACETYLAMINOFLUORENE]  21.8 pg
3        CCN(CC)N=O [N-NITROSODIETHYLAMINE]  21.4 pg

Any idea what MCH was measured for CC(=O)N1CCN(c2ccc(OCC3COC(Cn4ccnc4)(c4ccc(Cl)cc4Cl)O3)cc2)CC1 (configuration not stated) [KETOCONAZOLE] ?
21.5 pg

Would you mind doing CC(C)Cc1ccc(C(C)C(=O)O)cc1 (configuration not stated) [IBUPROFEN] as well?
21.7 pg

Would you mind doing O=C(O)COc1nn(Cc2ccccc2)c2ccccc12 [BENDAZAC] as well?
21.6 pg
